Biological target: Adenosine receptor A2a (Homo sapiens)
Sequence (P29274 whole entry): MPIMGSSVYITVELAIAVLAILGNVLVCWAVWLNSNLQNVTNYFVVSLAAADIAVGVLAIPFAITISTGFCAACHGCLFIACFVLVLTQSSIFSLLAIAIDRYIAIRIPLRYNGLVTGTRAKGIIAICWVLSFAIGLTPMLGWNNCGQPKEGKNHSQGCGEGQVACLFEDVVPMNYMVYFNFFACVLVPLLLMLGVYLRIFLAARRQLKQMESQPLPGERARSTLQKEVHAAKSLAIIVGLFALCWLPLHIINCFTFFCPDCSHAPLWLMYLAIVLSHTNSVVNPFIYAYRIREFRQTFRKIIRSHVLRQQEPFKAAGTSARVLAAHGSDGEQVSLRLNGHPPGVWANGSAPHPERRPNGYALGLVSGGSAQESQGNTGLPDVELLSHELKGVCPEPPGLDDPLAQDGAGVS
Test: DRUGMATRIX: Adenosine A2A radioligand binding (ligand: […])
Assay type: cell membranes, HEK293, Membrane
Settings: hek293; Not Active = under 50% inhibition at 10 µM
recorded_endpoint: IC50

INSERT INTO results (molecule, target, recorded_endpoint, measurement) VALUES
  ('Cc1cccc(C)c1NC(=O)C(C)N (stereo not given) [TOCAINIDE]', 'Adenosine receptor A2a (Homo sapiens)', 'IC50', 'Not Active'),
  ('NC(=O)NC(=O)Cc1ccccc1 [PHENACEMIDE]', 'Adenosine receptor A2a (Homo sapiens)', 'IC50', 'Not Active'),
  ('CC[C@H](C)[C@@H](CO[C@@H](Cc1ccccc1)C(=O)N[C@@H](CCS(C)(=O)=O)C(=O)OC(C)C)NC[C@@H](N)CS', 'Adenosine receptor A2a (Homo sapiens)', 'IC50', 'Not Active'),
  ('C[C@]12CC[C@@H](O)C[C@@H]1CC[C@@H]1[C@@H]2CC[C@]2(C)C(=O)CC[C@@H]12 [ANDROSTERONE]', 'Adenosine receptor A2a (Homo sapiens)', 'IC50', 'Not Active');

Reported IC50 for CC(=O)Nc1ccc2c(c1)Cc1ccccc1-2 [2-ACETYLAMINOFLUORENE] was Not Active

###

Target: C-C chemokine receptor type 4 (Homo sapiens, UniProt P51679); note: in other assays of this panel Not Active means under 50% inhibition at 10 µM
Sequence (P51679 whole entry): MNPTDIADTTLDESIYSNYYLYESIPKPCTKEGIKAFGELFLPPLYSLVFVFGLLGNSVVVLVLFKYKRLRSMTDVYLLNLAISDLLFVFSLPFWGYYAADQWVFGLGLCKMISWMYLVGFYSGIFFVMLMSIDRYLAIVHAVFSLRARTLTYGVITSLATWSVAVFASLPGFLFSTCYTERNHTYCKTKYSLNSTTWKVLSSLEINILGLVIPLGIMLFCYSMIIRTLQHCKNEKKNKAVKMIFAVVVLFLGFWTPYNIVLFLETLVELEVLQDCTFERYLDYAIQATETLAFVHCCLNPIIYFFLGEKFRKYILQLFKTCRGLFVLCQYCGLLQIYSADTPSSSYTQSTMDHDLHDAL
Format: cell membranes, Chem-1, Membrane
Settings: read-out: IC50
recorded_endpoint: pIC50
Reminder that pIC50 means the negative base-10 logarithm of the concentration expressed in mol/L.

response.value for CCN(CC)C(=S)SSC(=S)N(CC)CC (field: pIC50) = 5.08

###

Biological target: Alpha-1A adrenergic receptor (Rattus norvegicus, UniProt P43140)
Sequence (P43140 whole entry): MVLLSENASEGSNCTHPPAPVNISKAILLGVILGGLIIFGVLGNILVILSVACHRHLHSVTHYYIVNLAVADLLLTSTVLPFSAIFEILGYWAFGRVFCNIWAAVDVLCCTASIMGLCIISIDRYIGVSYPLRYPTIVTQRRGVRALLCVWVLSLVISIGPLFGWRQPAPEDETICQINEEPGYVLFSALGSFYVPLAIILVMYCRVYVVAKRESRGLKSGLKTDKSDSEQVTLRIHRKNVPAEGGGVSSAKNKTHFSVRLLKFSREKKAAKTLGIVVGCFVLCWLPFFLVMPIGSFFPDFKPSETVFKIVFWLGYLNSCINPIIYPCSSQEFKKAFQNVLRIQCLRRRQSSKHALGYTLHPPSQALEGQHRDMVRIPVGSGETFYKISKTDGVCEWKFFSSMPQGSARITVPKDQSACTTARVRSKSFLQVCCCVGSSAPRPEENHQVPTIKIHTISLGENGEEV
Assay: DRUGMATRIX: Alpha-1A adrenergic receptor radioligand binding (ligand: prazosin)
Format: cell membranes, Wistar, Submaxillary gland, Membrane
Conditions: Not Active = under 50% inhibition at 10 µM
recorded_endpoint: Ki

For orientation, consider the following solved cases.
INSERT INTO assay_data (substance, measurement) VALUES
  ('POVIDONE', 'Not Active'),
  ('COPPER(II) OXIDE', 'Not Active'),
  ('CHROMIC CHLORIDE', 'Not Active'),
  ('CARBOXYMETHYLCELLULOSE', 'Not Active');

Next item in the queue.
Looking up LEAD(IV) ACETATE , I see its Ki listed as Not Active

###

Molecular target: 5-hydroxytryptamine receptor 4 (Cavia porcellus, UniProt O70528); note: in other assays of this panel Not Active means under 50% inhibition at 10 µM
Sequence (O70528 whole entry): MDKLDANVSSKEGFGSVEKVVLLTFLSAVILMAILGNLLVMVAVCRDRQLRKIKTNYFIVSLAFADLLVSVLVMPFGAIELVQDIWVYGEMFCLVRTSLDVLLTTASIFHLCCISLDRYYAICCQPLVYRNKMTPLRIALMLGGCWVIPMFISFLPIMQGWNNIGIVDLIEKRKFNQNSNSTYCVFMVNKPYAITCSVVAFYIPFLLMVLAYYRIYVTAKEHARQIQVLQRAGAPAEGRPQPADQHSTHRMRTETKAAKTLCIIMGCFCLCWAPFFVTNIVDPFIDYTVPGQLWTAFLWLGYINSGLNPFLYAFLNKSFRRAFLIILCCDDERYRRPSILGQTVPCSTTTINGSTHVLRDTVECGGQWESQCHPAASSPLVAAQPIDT
Assay type: cell membranes, Dunkin-Hartley, Striatum, Membrane
recorded_endpoint: IC50

INSERT INTO measurements (compound, measurement) VALUES
  ('CC#C[C@]1(O)CC[C@H]2[C@@H]3CCC4=CC(=O)CCC4=C3[C@@H](c3ccc(N(C)C)cc3)C[C@@]21C [MIFEPRISTONE]', 'Not Active'),
  ('CC(CN1c2ccccc2Sc2ccccc21)N(C)C (stereo not drawn) [PROMETHAZINE]', 'Not Active'),
  ('NC(=O)CN1CCCC1=O', 'Not Active'),
  ('O=C(O)c1cc(/N=N/c2ccc(S(=O)(=O)Nc3ccccn3)cc2)ccc1O [SULFASALAZINE]', 'Not Active'),
  ('Oc1ncnc2[nH]ncc12 [ALLOPURINOL]', 'Not Active'),
  ('OC[C@H]1O[C@@H]2O[C@H]3[C@H](O)[C@@H](O)[C@@H](O[C@H]4[C@H](O)[C@@H](O)[C@@H](O[C@H]5[C@H](O)[C@@H](O)[C@@H](O[C@H]6[C@H](O)[C@@H](O)[C@@H](O[C@H]7[C@H](O)[C@@H](O)[C@@H](O[C@H]8[C@H](O)[C@@H](O)[C@@H](O[C@H]1[C@H](O)[C@H]2O)O[C@@H]8CO)O[C@@H]7CO)O[C@@H]6CO)O[C@@H]5CO)O[C@@H]4CO)O[C@@H]3CO [BETADEX]', 'Not Active');

O=C1c2ccccc2C(=O)C1c1ccccc1 [PHENINDIONE] has a reported IC50 of Not Active

COc1ccc(C[C@H](N)C(=O)N[C@H]2[C@@H](O)[C@H](n3cnc4c(N(C)C)ncnc43)O[C@@H]2CO)cc1 [PUROMYCIN] has a reported IC50 of Not Active

IC50 reported for this compound C=CCc1ccc2c(c1)OCO2 [SAFROLE] : Not Active

Looking up O=C(O)COC(=O)Cc1ccccc1Nc1c(Cl)cccc1Cl [ACECLOFENAC] , I see its IC50 listed as Not Active

The reported IC50 of the compound CN(Cc1cc(Br)cc(Br)c1N)C1CCCCC1 [BROMHEXINE] was Not Active

###

Biological target: Cannabinoid receptor 1 (Homo sapiens); note: in other assays of this panel Not Active means under 50% inhibition at 10 µM
Sequence (P21554 whole entry): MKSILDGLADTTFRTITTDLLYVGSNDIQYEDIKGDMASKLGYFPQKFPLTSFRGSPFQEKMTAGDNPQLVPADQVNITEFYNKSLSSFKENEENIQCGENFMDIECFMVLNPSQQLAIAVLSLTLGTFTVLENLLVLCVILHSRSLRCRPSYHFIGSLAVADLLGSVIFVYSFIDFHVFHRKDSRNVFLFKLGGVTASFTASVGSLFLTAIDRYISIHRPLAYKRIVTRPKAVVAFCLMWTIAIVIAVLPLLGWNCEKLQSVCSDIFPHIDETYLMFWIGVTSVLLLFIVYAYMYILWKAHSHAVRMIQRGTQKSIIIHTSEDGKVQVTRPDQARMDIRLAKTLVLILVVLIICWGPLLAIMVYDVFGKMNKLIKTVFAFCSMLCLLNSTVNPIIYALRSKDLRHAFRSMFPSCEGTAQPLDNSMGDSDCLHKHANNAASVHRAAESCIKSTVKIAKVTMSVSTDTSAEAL
Type: cell membranes, Chem-1, Membrane
Settings: chem-1
recorded_endpoint: IC50

Solved cases (4 shown):
INSERT INTO results (molecule, recorded_endpoint, measurement) VALUES
  ('COc1cc(NC(C)CCCN)c2ncccc2c1 (stereo not given)', 'IC50', 'Not Active'),
  ('NS(=O)(=O)c1cc(C(=O)O)c(NCc2ccco2)cc1Cl [FUROSEMIDE]', 'IC50', 'Not Active'),
  ('CC(CN1c2ccccc2Sc2ccccc21)N(C)C (stereo not given)', 'IC50', 'Not Active'),
  ('O=C(O)c1ccccc1', 'IC50', 'Not Active');

Tested on Cannabinoid receptor 1 (Homo sapiens), the item C[N+](C)(C)CCOP(=O)([O-])OC[C@H](O)CO showed IC50 equal to Not Active

Known value: Cannabinoid receptor 1 (Homo sapiens) IC50 of the molecule O=C(O)COC(=O)Cc1ccccc1Nc1c(Cl)cccc1Cl equals Not Active

Entry NC(N)=Nc1nc(CSCCC(N)=NS(N)(=O)=O)cs1 , Cannabinoid receptor 1 (Homo sapiens) data, IC50 value: Not Active

Item CC(=O)[C@]1(O)Cc2c(O)c3c(c(O)c2[C@@H](O[C@H]2C[C@H](N)[C@H](O)[C@H](C)O2)C1)C(=O)c1ccccc1C3=O ; assay system Cannabinoid receptor 1 (Homo sapiens); IC50 reported as Not Active

# IC50 measured on Cannabinoid receptor 1 (Homo sapiens) for item CC[C@@]1(O)C(=O)OCc2c1cc1n(c2=O)Cc2cc3c(CN(C)C)c(O)ccc3nc2-1 = Not Active

# IC50 measured on Cannabinoid receptor 1 (Homo sapiens) for item CCN1CCN(c2cc3c(cc2F)c(=O)c(C(=O)O)cn3C2CC2)CC1 = Not Active

###

Assay: DRUGMATRIX: Tumor Necrosis Factor (TNF), Non-Selective radioligand binding (ligand: [125I] TNF-alpha)
Assay type: cell membranes, Membrane
Conditions: u-937; Not Active = under 50% inhibition at 10 µM
recorded_endpoint: Ki

INSERT INTO measurements (compound, measurement) VALUES
  ('Cc1ccc(S(=O)(=O)NC(=O)NN2CCCCCC2)cc1 [TOLAZAMIDE]', 'Not Active'),
  ('O=C1CC[C@@]2(O)[C@H]3Cc4ccc(O)c5c4[C@@]2(CCN3CC2CC2)[C@H]1O5 [NALTREXONE]', 'Not Active'),
  ('C[N+](C)(C)CCOP(=O)([O-])OC[C@H](O)CO', 'Not Active'),
  ('C[N+](C)(C)CCOC(N)=O.[Cl-]', 'Not Active'),
  ('CCC(C)(C)C(=O)O[C@H]1C[C@@H](C)C=C2C=C[C@H](C)[C@H](CC[C@@H]3C[C@@H](O)CC(=O)O3)[C@H]21', 'Not Active');

Recorded Ki (compound CC(C)Cn1cnc2c(N)nc3ccccc3c21 ): Not Active

Ki reading for CCC1(c2ccccc2)C(=O)NC(=O)NC1=O : Not Active

# Ki of c1ccc(Cn2ccnc2)cc1 = Not Active

Entry under test: Oc1ncnc2[nH]ncc12 . Its Ki was Not Active

###

Assay: DRUGMATRIX: Phorbol Ester radioligand binding (ligand: [3H] PDBu)
Format: cell membranes, Mus musculus, ICR, Brain, Membrane
Conditions: Not Active = under 50% inhibition at 10 µM
recorded_endpoint: IC50

INSERT INTO results (substance, measurement) VALUES
  ('LEAD(IV) ACETATE', 'Not Active'),
  ('COPPER(II) OXIDE', 'Not Active'),
  ('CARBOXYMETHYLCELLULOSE', 'Not Active'),
  ('POVIDONE', 'Not Active');

Form: substance = CHROMIC CHLORIDE ; IC50 = Not Active

Ref: ChEMBL document CHEMBL1909046
